- Test system: Staphylococcus aureus
- run_description: Antibacterial activity against Staphylococcus aureus ATCC […] by two fold broth dilution method
- Assay type: functional
For each entry below, report its MIC value.
Numbers only, in µg/mL.

1) O=C(Cn1cncn1)c1ccc(F)cc1F
512

Kindly review the next compound as well.
Challenge: State its MIC: O=C(O)c1cn(C2CC2)c2c(Cl)c(N3CCC(NCC(O)(Cn4cncn4)c4ccc(Cl)c(Cl)c4)C3)c(F)cc2c1=O (racemic)
Response given: 8

###

- Test system: Shigella dysenteriae
- run_description: Antibacterial activity against Shigella dysenteriae by two fold broth dilution method
- Format: functional
observation_type: MIC (mg/L)
Numbers only, in mg/L.

1. O=C(Cn1cncn1)c1ccc(F)c(F)c1
512
2. O=C(Cn1cncn1)c1ccc(Cl)cc1Cl
512
3. NC1CCN(c2c(F)cc3c(=O)c(C(=O)O)cn(C4CC4)c3c2Cl)C1 (centres undefined)
1
4. O=C(O)c1cn(C2CC2)c2c(Cl)c(N3CCC(NCC(O)(Cn4cncn4)c4ccc(Cl)cc4Cl)C3)c(F)cc2c1=O (racemic)
0.5

Look up MIC for the entries below, preserving their order.
1. O=C(Cn1cncn1)c1ccc(Cl)cc1
2. O=C(N[C@H](CO)[C@H](O)c1ccc([N+](=O)[O-])cc1)C(Cl)Cl
3. O=C(Cn1cncn1)c1ccc(Cl)c(Cl)c1
4. Fc1ccc(C2(Cn3cncn3)CO2)cc1F (racemic)
5. Clc1ccc(C2(Cn3cncn3)CO2)cc1 (racemic)
6. Clc1ccc(C2(Cn3cncn3)CO2)cc1Cl (racemic)
7. O=C(O)c1cn(C2CC2)c2c(Cl)c(N3CCC(NCC(O)(Cn4cncn4)c4ccc(F)cc4F)C3)c(F)cc2c1=O (racemic)
8. Cc1ccc(C(O)(CNC2CCN(c3c(F)cc4c(=O)c(C(=O)O)cn(C5CC5)c4c3Cl)C2)Cn2cncn2)cc1 (racemic)

Response given:
512
32
512
64
32
64
0.5
0.5

Look up MIC for the entries below, preserving their order.
1. O=C(Cn1cncn1)c1ccc(F)cc1F
2. Clc1ccc(C2(Cn3cncn3)CO2)c(Cl)c1 (racemic)
3. Fc1ccc(C2(Cn3cncn3)CO2)c(F)c1 (racemic)
4. O=C(O)c1cn(C2CC2)c2c(Cl)c(N3CCC(NCC(O)(Cn4cncn4)c4ccc(Cl)c(Cl)c4)C3)c(F)cc2c1=O (racemic)

Response given:
512
64
32
0.5
